Hey, just so you know, these numbers are from ChEMBL document CHEMBL1149162.

# Assayed target: D(2) dopamine receptor (Homo sapiens)
# Sequence (P14416 whole entry): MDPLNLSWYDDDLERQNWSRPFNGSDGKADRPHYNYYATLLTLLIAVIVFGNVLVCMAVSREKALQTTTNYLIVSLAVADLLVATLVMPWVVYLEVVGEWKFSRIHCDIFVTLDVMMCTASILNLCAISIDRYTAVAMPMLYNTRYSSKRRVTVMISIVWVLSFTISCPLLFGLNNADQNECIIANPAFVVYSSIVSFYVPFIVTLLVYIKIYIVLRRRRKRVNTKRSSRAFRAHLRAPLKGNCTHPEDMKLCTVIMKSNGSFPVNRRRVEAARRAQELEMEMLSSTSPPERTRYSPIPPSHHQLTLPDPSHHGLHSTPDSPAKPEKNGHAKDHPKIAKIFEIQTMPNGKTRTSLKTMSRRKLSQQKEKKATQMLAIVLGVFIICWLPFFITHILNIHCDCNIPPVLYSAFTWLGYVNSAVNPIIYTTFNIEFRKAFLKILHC
# Assay: Binding affinity against human Dopamine receptor D2 using [3H]spiperone as radioligand
Give measured Ki for each item. Keep answers brief.

The compound `Clc1ccc(N2CCN(Cc3nc4ccccc4[nH]3)CC2)cc1` on D(2) dopamine receptor (Homo sapiens): Ki was > 10 µM

The observed Ki for `Clc1ccccc1N1CCN(Cc2nc3ccc[nH]c-3n2)CC1` when tested with D(2) dopamine receptor (Homo sapiens) stands at > 10 µM

The compound `Clc1cccc(N2CCN(Cc3nc4ccccc4[nH]3)CC2)c1` , when measured on D(2) dopamine receptor (Homo sapiens), yielded Ki of > 10 µM

Item: `Clc1ccc(N2CCN(Cc3cc4ccccn4n3)CC2)cc1` | System: D(2) dopamine receptor (Homo sapiens) | Ki: 1.31 µM

###

# Assayed target: D(4) dopamine receptor (Homo sapiens)
# Sequence (P21917 whole entry): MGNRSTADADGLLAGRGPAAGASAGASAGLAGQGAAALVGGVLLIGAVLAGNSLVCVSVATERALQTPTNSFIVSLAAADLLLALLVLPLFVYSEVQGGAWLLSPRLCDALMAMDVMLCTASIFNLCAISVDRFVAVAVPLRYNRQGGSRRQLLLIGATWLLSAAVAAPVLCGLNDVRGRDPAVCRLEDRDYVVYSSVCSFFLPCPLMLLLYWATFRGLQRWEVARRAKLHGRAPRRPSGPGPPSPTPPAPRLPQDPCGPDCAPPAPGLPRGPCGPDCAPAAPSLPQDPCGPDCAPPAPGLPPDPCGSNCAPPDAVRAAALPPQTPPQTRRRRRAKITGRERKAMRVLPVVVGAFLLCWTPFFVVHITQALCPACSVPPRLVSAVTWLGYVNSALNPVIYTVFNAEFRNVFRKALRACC
# Assay: Effective concentration against human Dopamine receptor D4
Assignment: determine reported log10 of EC50 for the given molecules.
Record value = log10 of EC50 given in nM.

Value (log10 of EC50, D(4) dopamine receptor (Homo sapiens)) for record `COc1ccccc1N1CCN(Cc2nc3ccccc3[nH]2)CC1` = 0.75

Record for `c1ccc(N2CCN(Cc3nc4ccccc4[nH]3)CC2)cc1` under target or system D(4) dopamine receptor (Homo sapiens): log10 of EC50 reported as 1.00

With D(4) dopamine receptor (Homo sapiens) as the test system, `Clc1ccccc1N1CCN(Cc2nc3ccccc3[nH]2)CC1` showed log10 of EC50 of 0.00

Kindly note: D(4) dopamine receptor (Homo sapiens), `Clc1ccccc1N1CCN(Cc2nc3ccc[nH]c-3n2)CC1` , log10 of EC50 value reported: 4.00

Record `Clc1ccc(N2CCN(Cc3cc4ccccn4n3)CC2)cc1` has D(4) dopamine receptor (Homo sapiens) log10 of EC50 equal to 2.19

###

# Assayed target: D(4) dopamine receptor (Homo sapiens) (UniProt P21917)
# Assay: D4 efficacy against human Dopamine receptor D4 expressed in HEK293 cells
# Type: functional, cell-based
Property: Efficacy (%)
Give the number; % is assumed, so skip it.

Measured Efficacy, `Clc1ccc(N2CCN(Cc3nc4ccccc4[nH]3)CC2)cc1` : 4.7

# Efficacy of `COc1cccc(N2CCN(Cc3nc4ccccc4[nH]3)CC2)c1` = 5

# Efficacy (compound: `COc1ccc(N2CCN(Cc3nc4ccccc4[nH]3)CC2)cc1` ) is 4.8

Memo: `c1ccc2[nH]c(CN3CCN(c4ccncc4)CC3)nc2c1` , reported Efficacy: 4.8

Efficacy for `Fc1ccc(N2CCN(Cc3nc4ccccc4[nH]3)CC2)cc1` is 9.9

Efficacy measured on `c1ccc(N2CCN(Cc3nc4ccccc4[nH]3)CC2)cc1` = 37.5

Form: compound = `c1cncc(N2CCN(Cc3nc4ccccc4[nH]3)CC2)c1` ; Efficacy = 24.9
